Where a name gives a salt, the structure may show the parent alone.
Collected melting point values appear next to each entry.
Recorded endpoint: melting point

Compound	Obs value
COc1ccc(CC[C@H]2CN(C3=Nc4ccccc4Nc4sc(C)cc43)CCN2C)cc1 (as salt: hydrochloride) [Example 185, dihydrochloride]	239 °C (dec.)
COc1ccc(CC[C@H]2CN(C3=Nc4ccccc4Nc4sc(C(C)C)nc43)CCN2C)cc1 (as salt: hydrochloride)	190 °C
Clc1ccc2c(c1)N=C(N1CCN[C@@H](Cc3ccccc3)C1)c1ccccc1N2 [Example 585]	79 to 92 °C
Cc1ccc2c(c1)Nc1ccccc1N=C2N1CCN(C)[C@@H](CCc2cccc(F)c2)C1 [Example 578]	63 °C (dec.)
COc1ccccc1CC[C@H]1CN(C2=Nc3ccccc3Nc3sc(C)cc32)CCN1 (as salt: hydrochloride) [Example 181, dihydrochloride]	202 °C (dec.)
Cc1cc2c(s1)Nc1ccccc1N=C2N1CCN[C@@H](CCc2ccc(F)cc2)C1 (as salt: hydrochloride) [Example 176, dihydrochloride]	236 °C (dec.)
Cc1cc2c(s1)Nc1ccccc1N=C2N1CCN[C@@H](Cc2cccs2)C1 [Example 80]	95 to 104 °C
Cc1nc2c(s1)Nc1ccccc1N=C2N1CCN[C@@H](CCc2ccccc2)C1 (as salt: hydrochloride) (hydrate or solvate) [Example 460, dihydrochloride hemihydrate]	230 °C

----------
Listing: melting point of selected molecules
Where a name gives a salt, the structure may show the parent alone.

Molecule	melting point
CC(C)c1ccc2c(c1)C(N1CCN(C)[C@@H](CCc3cccc(F)c3)C1)=Nc1ccccc1N2 (as salt: hydrochloride)	227 °C
CC(C)c1nc2c(s1)Nc1ccccc1N=C2N1CCN(C)[C@@H](Cc2ccccc2)C1 (as salt: hydrochloride) [Example 477, dihydrochloride]	235 °C
Cc1cc2c(s1)Nc1ccccc1N=C2N1CCN(C)[C@@H](CCc2cccc(F)c2)C1 (as salt: hydrochloride) [Example 183, dihydrochloride]	225 °C (dec.)
Cc1cc2c(s1)Nc1ccccc1N=C2N1CCN[C@@H](Cc2cccc(F)c2)C1	87 to 99 °C
Cc1cc2c(s1)Nc1ccccc1N=C2N1CCN[C@@H](CCc2cccc(F)c2)C1 (as salt: hydrochloride) [Example 177, dihydrochloride]	211 °C (dec.)
Cc1cc2c(s1)Nc1ccccc1N=C2N1CCN[C@@H](CCc2cccc(C(F)(F)F)c2)C1	69 °C (dec.)
Cc1nc2c(s1)Nc1ccccc1N=C2N1CCN[C@@H](Cc2ccccc2)C1	250 to 252 °C
CC(C)c1nc2c(s1)Nc1ccccc1N=C2N1CCN(C)[C@@H](CCc2ccccc2)C1 (as salt: hydrochloride)	210 °C
Cc1cc2c(s1)Nc1ccccc1N=C2N1CCN(C)[C@@H](CCc2cccc(Cl)c2)C1	69 °C (dec.)
Cc1nc2c(s1)Nc1ccccc1N=C2N1CCN(C)[C@@H](CCc2ccccc2)C1 (as salt: hydrochloride) (hydrate or solvate) [Example 461, dihydrochloride hemihydrate]	220 °C
Cc1cc2c(s1)Nc1ccccc1N=C2N1CCN(C)[C@@H](CCc2ccccc2Cl)C1	72 °C (dec.)
COc1ccc(C[C@H]2CN(C3=Nc4ccccc4Nc4sc(C)cc43)CCN2)cc1	85 to 98 °C
COc1ccc(CC[C@H]2CN(C3=Nc4cc(F)ccc4Nc4sc(C)cc43)CCN2C)cc1.Cl (stereo in doubt)	180 to 182 °C
COc1ccc(CC[C@H]2CN(C3=Nc4ccccc4Nc4sc(C)cc43)CCN2)cc1 (as salt: hydrochloride) [Example 179, dihydrochloride]	213 °C (dec.)

The measured values listed here are drawn from patent US7214673B2.
